I'd be grateful if you could share measured Mean release rate for these entries.
Assay: Rate of release of pheromone components from lures in laboratory wind tunnel
Format: physicochemical
Settings: Interval 3 days, Vial; 27° C., 8 km/hr wind speed
Answers are plain numbers, in ng/h.

CCCCCCCCCC(C)=O    41.2
CCCCCCCCCC(C)O (racemic)    19.5
CCCCCCCCCC(C)OC(C)=O (racemic) [2-undecyl acetate, 2-acetoxyundecane]    23.8

API: the following record is the query input.
Input: For the compound CCCCCCC(=O)CCC(C)OC(C)=O (racemic) [racemic 2-acetoxy-5-undecanone, 2-acetoxy-5-undecanone] , what Mean release rate is on record?
Output: 37.1
